Known viability, T/C of a selection of molecules
# Test system: 276233-004-R-J1-PDC KRAS spheroids with HUVEC/MSC, viability;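 further: cells exposed to agents for seven days before viability read; 100% = DMSO vehicle control wells and lower values mean fewer viable cells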
# assay_name: Anticancer human tumor 276233-004-R-J1-PDC patient-derived colon adenocarcinoma cell line growth inhibition [KRAS2]
# details: second compound 0.1 µM; first compound 10 µM; hits give low values
measured_property: viability, T/C (%)

molecule="CC1(C)CCC(CN2CCN(c3ccc(C(=O)NS(=O)(=O)c4ccc(NCC5CCOCC5)c([N+](=O)[O-])c4)c(Oc4cnc5[nH]ccc5c4)c3)CC2)=C(c2ccc(Cl)cc2)C1 + CC1OCC2(CCN(c3cnc(Sc4ccnc(N)c4Cl)c(N)n3)CC2)C1N" unit_tag=% numeric_readout=54.9
molecule="CCNC(=O)CC1N=C(c2ccc(Cl)cc2)c2cc(OC)ccc2-n2c(C)nnc21 (configuration not stated) + C=CC(=O)N1CCN(c2nc(=O)n(-c3c(C)ccnc3C(C)C)c3nc(-c4c(O)cccc4F)c(F)cc23)C(C)C1" unit_tag=% numeric_readout=65.4
molecule="CCNC(=O)CC1N=C(c2ccc(Cl)cc2)c2cc(OC)ccc2-n2c(C)nnc21 (configuration not stated) + COc1cc2nc(C)nc(NC(C)c3cc(N)cc(C(F)(F)F)c3)c2cc1OC1CCOC1" unit_tag=% numeric_readout=49.2
molecule="O=C(c1cc(Cc2n[nH]c(=O)c3ccccc23)ccc1F)N1CCN(C(=O)C2CC2)CC1 + COc1cc2nc(C)nc(NC(C)c3cc(N)cc(C(F)(F)F)c3)c2cc1OC1CCOC1" unit_tag=% numeric_readout=86.5
molecule="O=C(c1cc(Cc2n[nH]c(=O)c3ccccc23)ccc1F)N1CCN(C(=O)C2CC2)CC1 + CNCc1ccccc1-c1csc(C(C)Nc2nc(C)nc3cc(OC)c(OC)cc23)c1" unit_tag=% numeric_readout=96.5
molecule="COC(=O)c1ccc2c(C(=Nc3ccc(N(C)C(=O)CN4CCN(C)CC4)cc3)c3ccccc3)c(O)[nH]c2c1 + CC1OCC2(CCN(c3cnc(Sc4ccnc(N)c4Cl)c(N)n3)CC2)C1N" unit_tag=% numeric_readout=56.2
molecule="O=C(c1cc(Cc2n[nH]c(=O)c3ccccc23)ccc1F)N1CCN(C(=O)C2CC2)CC1 + C=CC(=O)N1CCN(c2nc(OCC3CCCN3C)nc3c2CCN(c2cccc4cccc(C)c24)C3)CC1CC#N" unit_tag=% numeric_readout=83.1

Source listed as PubChem BioAssay AID1963873.
